Numbers sourced from patent US11472877.

Molecular target: T1, human TREM2 on BWZ cells (human, UniProt Q9NZC2 19-230)
T1 construct: whole, on cells; not tied to the cell line; also called BWZ Human TREM2
T1 sequence (looked up): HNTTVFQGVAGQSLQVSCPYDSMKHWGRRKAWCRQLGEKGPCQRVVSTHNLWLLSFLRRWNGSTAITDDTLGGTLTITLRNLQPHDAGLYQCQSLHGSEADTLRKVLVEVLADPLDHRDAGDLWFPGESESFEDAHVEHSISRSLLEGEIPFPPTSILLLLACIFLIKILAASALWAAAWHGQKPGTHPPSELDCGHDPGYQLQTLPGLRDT
Test: FACS, BWZ cells
Measurement name: binding result

T1-18 (antibody, IgG1, V domains shown, huIgG1; also called TI-18; ADI-19085) VH: EVQLVESGGGLVQPGRSLRLSCAASGFTFDDYAMHWVRQAPGKGLEWVSGISWNSGDIGYADSVKGRFTISRDNAKNTLYLQMNSLRAEDTALYYCAKGPRMVTHLDVWGQGTMVTVSS VL: DIQMTQSPSTLSASVGDRVTITCRASQSISSWLAWYQQKPGKAPKLLIYKASSLESGVPSRFSGSGSGTEFTLTISSLQPDDFATYYCQQDSIYPITFGGGTKVEIK	no binding
T1-68 (antibody, IgG1, V domains shown, huIgG1; also called TI-68; ADI-19144) VH: EVQLVQSGAEVKKPGESLKISCKGSGYSFTTYWIGWVRQMPGKGLEWMGIIYPGDSDTRYSPSFQGQVTISADKSISTAYLQWSSLKASDTAMYYCARGSPWDGRLFDIWGQGTMVTVSS VL: EIVLTQSPATLSLSPGERATLSCRASQSVSSYLAWYQQKPGQAPRLLIYDASNRATGIPARFSGSGSGTDFTLTISSLEPEDFAVYYCQQFDNLPYTFGGGTKVEIK	no binding
